Measured values drawn from paper PMC7582507 for this set.

Tested on: Leishmania amazonensis promastigotes
Assay: Leishmanicidal activity against L. amazonensis promastigotes (XTT, 72 h)
Settings: mouse (RAW cells); Leishmania amazonensis (parasite), L. amazoniensis SI (selectivity index, cytotoxicity/anti-protozoal activity), IC50 RAW cells / IC50 L. amazonensis
Quick rule for you: selectivity ratio at 72 h at 0.7 or higher means Yes, lower means No.

# check: selectivity ratio at 72 h of CC(C)c1ccc2c(c1)-c1cc(CO)ccc1C(C)(C)O2 [10f] is greater than or equal to 0.7
No

# bool: selectivity ratio at 72 h of COc1cccc2c1-c1cc(CO)ccc1C(C)(C)O2 [10b] >= 0.7
No

selectivity ratio at 72 h >= 0.7 for COc1ccc2c(c1)-c1cc(CO)ccc1CO2 ?
No

Dear colleague, could you confirm whether COc1ccc2c(c1)OC(C)(C)c1ccc(CO)cc1-2 [10a] has selectivity ratio at 72 h at or above 0.7?
Yes

Record CCCCCc1ccc2c(c1)-c1cc(CO)ccc1C(C)(C)O2 [10h] ; criterion: selectivity ratio at 72 h no lower than 0.7. Met?
Yes

// inclusive: selectivity ratio at 72 h at least 0.7? input: CC(C)c1ccc2c(c1)OC(C)(C)c1ccc(CO)cc1-2 [10g]
Yes

Dear colleague, could you confirm whether CCC1(CC)Oc2ccc(OC)cc2-c2cc(CO)ccc21 has selectivity ratio at 72 h at or above 0.7?
Yes

Answer whether selectivity ratio at 72 h of Cc1ccc2c(c1)-c1cc(CO)ccc1C(C)(C)O2 [10c] is greater than or equal to 0.7.
No

Could you tell me if the measured selectivity ratio at 72 h of CCC1Oc2ccc(OC)cc2-c2cc(CO)ccc21 (stereo not drawn) reaches 0.7 or more?
No

***
Is selectivity ratio at 72 h at least 0.7? Consider CCCCC1(CCCC)Oc2ccc(OC)cc2-c2cc(CO)ccc21
Yes
